Tested on: A204
runDescription: relative viability vs DMSO control (72 h) (fraction); higher = more viable cells
appliedConditions: 0.04115 µM
Mark TRUE only for relative viability values smaller than 0.9; exact matches and larger values are FALSE.

O=C1CCc2c(Oc3ccc4c(c3)[C@@H]3[C@H](O4)[C@H]3c3nc4cc(C(F)(F)F)ccc4[nH]3)ccnc2N1	FALSE
Cn1cnc2c(F)c(Nc3ccc(Br)cc3Cl)c(C(=O)NOCCO)cc21	FALSE
COC(=O)c1ccc2c(c1)NC(=O)/C2=C(\Nc1ccc(N(C)C(=O)CN2CCN(C)CC2)cc1)c1ccccc1	TRUE

Next:
Prompt line: Please let me know if `Cc1c2oc3c(C)ccc(C(=O)N[C@@H]4C(=O)N[C@H](C(C)C)C(=O)N5CCC[C@H]5C(=O)N(C)CC(=O)N(C)[C@@H](C(C)C)C(=O)O[C@@H]4C)c3nc-2c(C(=O)N[C@@H]2C(=O)N[C@H](C(C)C)C(=O)N3CCC[C@H]3C(=O)N(C)CC(=O)N(C)[C@@H](C(C)C)C(=O)O[C@@H]2C)c(N)c1=O` shows relative viability below 0.9.
Response line: TRUE
